Conditions: in n-heptanol, 283.15 K
measured quantity: solubility (mole fraction)
Write the number on its own, no unit after it.

Which solubility (mole fraction) value is on record for CC(C)(C)C(=O)C(Oc1ccc(Cl)cc1)n1ccnc1 (stereo unspecified) ?
0.0797

----------
Settings: in ethanol, 293.15 K
measured quantity: solubility (mole fraction)
Write the number on its own, no unit after it.

Which solubility (mole fraction) value is on record for CC(C)(C)C(=O)C(Oc1ccc(Cl)cc1)n1ccnc1 (stereo unspecified) ?
0.133

----------
Conditions: in n-heptanol, 303.15 K
measured quantity: solubility (mole fraction)
Write the number on its own, no unit after it.

Which solubility (mole fraction) value is on record for CC(C)(C)C(=O)C(Oc1ccc(Cl)cc1)n1ccnc1 (stereo unspecified) ?
0.152
